- ASSAY_TARGET: MAO-A (Homo sapiens, UniProt P21397)
- Sequence (P21397 whole entry): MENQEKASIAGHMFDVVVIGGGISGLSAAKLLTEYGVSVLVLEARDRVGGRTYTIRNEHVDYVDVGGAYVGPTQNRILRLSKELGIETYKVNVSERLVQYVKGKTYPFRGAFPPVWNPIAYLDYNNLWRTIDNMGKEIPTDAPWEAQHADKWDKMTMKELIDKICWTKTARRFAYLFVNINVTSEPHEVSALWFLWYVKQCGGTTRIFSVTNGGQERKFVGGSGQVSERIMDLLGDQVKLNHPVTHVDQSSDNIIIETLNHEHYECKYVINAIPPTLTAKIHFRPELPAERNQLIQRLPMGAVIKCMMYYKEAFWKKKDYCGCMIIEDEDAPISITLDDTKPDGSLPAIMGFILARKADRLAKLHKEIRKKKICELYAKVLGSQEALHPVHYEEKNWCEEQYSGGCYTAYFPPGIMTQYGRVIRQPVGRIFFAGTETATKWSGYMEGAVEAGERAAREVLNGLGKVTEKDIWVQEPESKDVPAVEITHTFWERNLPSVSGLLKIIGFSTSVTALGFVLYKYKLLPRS
- ASSAY_SUMMARY: Inhibition of human recombinant MAO-A expressed in baculovirus infected BTI insect cells using vanillic acid/tyramine as substrate at 20 uM incubated for 30 mins prior to tyramine addition measured after 1 hr by spectrophotometry
- MEASUREMENT_SETUP: probe tyramine (with vanillic acid)
READOUT_KIND: inhibition at 1 h, 20 µM (%)
Please state the figure in %; there is no need to write the unit.

The reported inhibition at 1 h, 20 µM of the compound `CN1CCN(c2ccc(Nc3cc(=O)n(-c4ccc(Cl)cc4)nc3-c3nc[nH]n3)cc2)CC1` was 3

The reported inhibition at 1 h, 20 µM of the compound `O=c1cc(NC2CCCCC2)c(-c2nc[nH]n2)nn1-c1ccccc1` was 4
